testDetails: A CellTox Green Cytotoxicity Assay to monitor cytotoxicity in HEK293 cells - 16 hour (AID 1224888); note: nearly all actives have a fitted effect of over 35% in size
details: CellTox Green fluorescence; series mostly up to 76.8 µM
Inconclusive results are not listed. Activity calls are given as the source filed them. Calls come from the whole dose curve; as a rule, active = well fitted activation curve with a large enough effect in the repeat runs; inconclusive = weak or mixed curves; inactive = flat fitted curve, though single readings scatter.
Mark one answer only. Choices: true (1) (active), false (0) (inactive)

1. Nc1ccc(N=Nc2ccccc2)cc1 | false (0)
2. Oc1cccc(Cl)c1Cl | false (0)
3. CSC(C)(C)/C=N/O | false (0)

Query: Which outcome was entered for the compound CN1[C@@H]2CC[C@H]1CC(O)C2 (stereo partly specified) in this test?
Response: false (0)

Query: Look up the recorded call for `ClC(Cl)C(Cl)(Cl)Cl` in this test.
Response: false (0)

Query: How did this test come out for `O=C(Nc1ccc(F)cc1F)c1cccnc1Oc1cccc(C(F)(F)F)c1` ?
Response: false (0)
